Tested on: L1210
Test: Antitumor activity to reduce proliferation of murine leukemia L1210/0 cells by 50%
Type: functional, cell-based, Mus musculus
What IC50 was measured for each of the following?
Please state the figure in µg/mL; there is no need to write the unit.

Request: # input molecule: OCC1CCCC1n1cnc2c(Cl)ncnc21 (cis isomer) ; wanted: its IC50
Response: 62.8

Request: # input molecule: OCC1CCCC1Cn1cnc2c(Cl)ncnc21 (trans isomer) ; wanted: its IC50
Response: 48.7

Request: # input molecule: Nc1ncnc2c1ncn2C1CCCC1CO (trans isomer) ; wanted: its IC50
Response: 179

Request: # input molecule: Nc1ncnc2c1ncn2CC1CCCC1CO (stereo in doubt; 7c) ; wanted: its IC50
Response: 102

Request: # input molecule: OCC1CCCC1Cn1cnc2c(Cl)ncnc21 (cis isomer) ; wanted: its IC50
Response: 14

Request: # input molecule: O=c1[nH]c(=O)n(CC2CCCC2CO)cc1I (trans isomer) ; wanted: its IC50
Response: 65.8

Request: # input molecule: OCC1CCCC1n1cnc2c(Cl)ncnc21 (trans isomer) ; wanted: its IC50
Response: 56.1

Request: # input molecule: O=c1[nH]c(=O)n(CC2CCCC2CO)cc1I (cis isomer) ; wanted: its IC50
Response: 71.1

Request: # input molecule: O=c1[nH]c(=O)n(C2CCCC2CO)cc1I (stereo in doubt; 4a) ; wanted: its IC50
Response: 52.3
